Test: Pharmacokinetic parameters for Isosorbide mononitrate after multiple oral dose administrations of 60 and 120 mg Isosorbide mononitrate tablets to subjects
Assay type: ADME, organism-based
Set-up: dose 120 mg, dose 60 mg, route oral
Settings: human, in vivo; dose 60 mg, dosed compound id 10, dosed compound name ISOSORBIDE MONONITRATE, regimen Multiple dose, route oral, tissue Plasma
Property name: Tmax

Query: Any idea what Tmax was measured for O=[N+]([O-])O[C@@H]1CO[C@H]2[C@@H]1OC[C@@H]2O [ISOSORBIDE MONONITRATE] ?
Result: 2.9 to 4.2 h

---

Tested on: Homo sapiens
Experiment: Pharmacokinetic parameters for Isosorbide mononitrate after multiple oral dose administrations of 60 and 120 mg Isosorbide mononitrate tablets to subjects
Format: ADME, organism-based
Design: dose 120 mg, dose 60 mg, route oral
Conditions: in vivo, po, dose 120 mg, dosed compound id 10, dosed compound name ISOSORBIDE MONONITRATE, regimen Multiple dose, tissue Plasma
Property name: CL/F

Query: Any idea what CL/F was measured for O=[N+]([O-])O[C@@H]1CO[C@H]2[C@@H]1OC[C@@H]2O [ISOSORBIDE MONONITRATE] ?
Result: 119 to 140 mL/min
